Value source: the supplement of paper PMC6555819

System: PPARa:RXRa (NR concentration 270 nM, RXRa partner concentration 90 nM)
protocol-details: PBM binding z-score (relative to random genomic background probes); higher = stronger binding; sequences stand for … in GC…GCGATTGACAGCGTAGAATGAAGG
What PBM binding z-score was measured for each of the following?
Keep the answer to the number alone.

Returns the measured PBM binding z-score for the input sequence. Input: `CCGACTGGGCCACGAAAGGTCATTGATTCAGTGA`
4.31

Returns the measured PBM binding z-score for the input sequence. Input: `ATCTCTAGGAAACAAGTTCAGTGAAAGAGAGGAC`
0.467

Returns the measured PBM binding z-score for the input sequence. Input: `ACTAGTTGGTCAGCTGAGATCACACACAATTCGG`
-0.138

Returns the measured PBM binding z-score for the input sequence. Input: `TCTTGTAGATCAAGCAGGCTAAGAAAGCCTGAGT`
0.113

Returns the measured PBM binding z-score for the input sequence. Input: `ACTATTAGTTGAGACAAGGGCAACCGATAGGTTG`
0.0106

Returns the measured PBM binding z-score for the input sequence. Input: `GCTGCTAGGTCAACTGATGGTCAGCTGAAGCTCG`
3.62

Returns the measured PBM binding z-score for the input sequence. Input: `TCTGCTAGGTCAGTAGGTCAGCTAACGAGCTGCC`
3.55

Returns the measured PBM binding z-score for the input sequence. Input: `ATCGAAAGGTCGACGACGTGAGTATACACCGTTT`
4.21

Returns the measured PBM binding z-score for the input sequence. Input: `AGAATGATGTTATACGTAGATCAGGGAAGAAAGT`
-0.192

Returns the measured PBM binding z-score for the input sequence. Input: `TTACCAAGGTGAAGGTCCTTGATCCCTCTGTAGA`
1.87

Returns the measured PBM binding z-score for the input sequence. Input: `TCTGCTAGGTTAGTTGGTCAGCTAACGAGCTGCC`
0.052

Returns the measured PBM binding z-score for the input sequence. Input: `AGTCAAAGTTCAGGACGAGGTAACGTAAAGCACG`
3.46

Returns the measured PBM binding z-score for the input sequence. Input: `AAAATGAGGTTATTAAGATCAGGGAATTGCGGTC`
2.8

Returns the measured PBM binding z-score for the input sequence. Input: `GCTAGCAGGCCATCTGGGTCACTCAATGACGGGC`
1.7

Returns the measured PBM binding z-score for the input sequence. Input: `ATCGAAGGGTCGACGAGGTGAGTATACACCGTTT`
2.44

Returns the measured PBM binding z-score for the input sequence. Input: `CCTACAGGGCCACGAAAGGTCATTGATTCAGTGA`
4.51

Returns the measured PBM binding z-score for the input sequence. Input: `GGAACGACGGCAAGTTGATAGCAGAGTTTGATGG`
-0.669

Returns the measured PBM binding z-score for the input sequence. Input: `CCTACTAGGCCATTCAGAGGTCATTGATCATATG`
4.04

Returns the measured PBM binding z-score for the input sequence. Input: `GCTGGGAGGACAAGGTCAGAGCTTTGTCCGTAGA`
2.47

Returns the measured PBM binding z-score for the input sequence. Input: `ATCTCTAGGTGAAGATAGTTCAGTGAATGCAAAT`
1.69

Returns the measured PBM binding z-score for the input sequence. Input: `GCGACTGGGGCATCAGCAGGTTACCAAAACTTAA`
1.34

Returns the measured PBM binding z-score for the input sequence. Input: `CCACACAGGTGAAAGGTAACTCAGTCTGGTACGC`
3.42

Returns the measured PBM binding z-score for the input sequence. Input: `ACTAGCAGGCCAAGTTTGGGTCGCTCAAACAAAG`
-0.185

Returns the measured PBM binding z-score for the input sequence. Input: `CCGACCGGGGCAAAGGTTACCATACTCAGTACGA`
4.89

Returns the measured PBM binding z-score for the input sequence. Input: `GCTAGCACGCCATTTGGGTCACTCAATGACGGGC`
1.13

Returns the measured PBM binding z-score for the input sequence. Input: `GCGACAGGGGCATCAGCAGGTTACCATAACTTAA`
1.33

Returns the measured PBM binding z-score for the input sequence. Input: `CCTAGCAGGCCAATCTGGGTCACTTAAGGCTTGA`
2.96

Returns the measured PBM binding z-score for the input sequence. Input: `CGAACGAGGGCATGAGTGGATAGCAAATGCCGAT`
1.22

Returns the measured PBM binding z-score for the input sequence. Input: `ACAGACAGGTTAGTGAAGGTAACTCAGCTGGACG`
0.259

Returns the measured PBM binding z-score for the input sequence. Input: `AATACAGGGTCATCGTAGGGCAGAGTACGCACAG`
5.83

Returns the measured PBM binding z-score for the input sequence. Input: `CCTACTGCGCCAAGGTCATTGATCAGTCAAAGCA`
3.75

Returns the measured PBM binding z-score for the input sequence. Input: `CGAACGAGGGCATGAGTTGACAGCAAATGCCGAT`
1.81

Returns the measured PBM binding z-score for the input sequence. Input: `CCTCGGAGGACAGTAGGTCAGAGCTGTCCGCTTT`
1.64

Returns the measured PBM binding z-score for the input sequence. Input: `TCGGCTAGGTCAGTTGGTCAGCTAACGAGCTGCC`
1.48

Returns the measured PBM binding z-score for the input sequence. Input: `AGAACGAGGGCATTGAGTTGATAGCACGGGTGGC`
1.26

Returns the measured PBM binding z-score for the input sequence. Input: `AAATGTAGGTTAGCTGGGGTCATTCAGACTAGGC`
5.67

Returns the measured PBM binding z-score for the input sequence. Input: `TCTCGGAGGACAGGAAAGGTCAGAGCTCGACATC`
3.23

Returns the measured PBM binding z-score for the input sequence. Input: `AGAACGAGGGCACGCTGAGCTGATAGCAGAGTAG`
1.98

Returns the measured PBM binding z-score for the input sequence. Input: `TCATATAGTTAAAAGGTGAAAGTCGGTGTGGTAA`
3.42

Returns the measured PBM binding z-score for the input sequence. Input: `AGAACTAGGGCAATGAGTTGATAGCACGGGTGGC`
2.48

Returns the measured PBM binding z-score for the input sequence. Input: `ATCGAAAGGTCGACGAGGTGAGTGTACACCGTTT`
4.42

Returns the measured PBM binding z-score for the input sequence. Input: `ATATGTAGGTTACATCCGGGTCATTCGGGCTATG`
4.42

Returns the measured PBM binding z-score for the input sequence. Input: `CCTACTGGGCCATAAGGTCATTGATATCAACGTT`
4.14

Returns the measured PBM binding z-score for the input sequence. Input: `ACTAGTTGATCAGCTGAGGTCACACACAATTCGG`
3.89

Returns the measured PBM binding z-score for the input sequence. Input: `CGAACTAGGTCATCCAGAACAGTGAATACATTGA`
4.64

Returns the measured PBM binding z-score for the input sequence. Input: `CCTAGCAGGCCAGGGTCACTTAAGCATTTCGCTT`
2.77

Returns the measured PBM binding z-score for the input sequence. Input: `TCTTATAGATCAAAGGTTAAGAAAGCCGAAGCCT`
4.55

Returns the measured PBM binding z-score for the input sequence. Input: `AATACAGGGTCATTGTAGGCCAGAGTACGCACAG`
5.93

Returns the measured PBM binding z-score for the input sequence. Input: `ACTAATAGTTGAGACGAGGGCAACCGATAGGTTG`
0.669

Returns the measured PBM binding z-score for the input sequence. Input: `TCTTCTAGGTCAGTTGGTCAGCTAACGAGCTGCC`
2.99

Returns the measured PBM binding z-score for the input sequence. Input: `CCGACTGGGGCAGAAAGGATACCATACCATCCGG`
-0.597
